Numbers sourced from patent US8343964B2.

Assay: In vitro cytotoxicity on HCT116 cells
Assay type: cell-based
Settings: human, HCT116 cells (human colon tumour); concentration of 10^−5 M; read-out: Average cytotoxicity (% inhibition), HCT116 cells
Description: The in vitro cytotoxicity results, measured at a concentration of 10^−5 M, are described below. The cytotoxicity was measured on 5 cell lines—KB (human mouth carcinoma), MCF7 (breast carcinoma) and MCF7R (resistant strain), Vero (monkey kidney) and HCT116 (human colon tumour).
Class assignment keyed on cytotoxicity, ranges zone 1: < 20%; zone 2: ≥ 20% and < 30%; zone 3: ≥ 30%

                                    compound  assigned_category
 0  CC(c1c[nH]c2ccc(Br)cc12)N(O)Cc1ccccc1 (centres unmarked) [Compound (1)]             zone 2
 1  COc1ccc(CN(O)C(CC(C)C)c2c[nH]c3ccccc23)c(OC)c1 (centres unmarked) [(40)]             zone 3
 2  CC(C)(C)OC(=O)NCC(c1c[nH]c2ccccc12)N(O)C(=O)OC(C)(C)C (centres unmarked) [Compound (11)]             zone 2
 3  CC(C)(C)OC(=O)NCC(c1c[nH]c2ccccc12)N(O)Cc1ccccc1 (centres unmarked) [Compound (6)]             zone 2
 4  CC(C)(C)OC(=O)NCC(NO)c1c[nH]c2cc(Br)ccc12 (centres unmarked) [(22)]             zone 3
 5  CC(C)(C)OC(=O)NCC(NO)c1c[nH]c2ccccc12 (centres unmarked) [(46)]             zone 3
 6  COc1ccc2[nH]cc(C(N)CNC(=O)OC(C)(C)C)c2c1 (centres unmarked) [(24)]             zone 1
 7  COc1ccc2[nH]cc(C(C)N(O)Cc3ccccc3)c2c1 (centres unmarked) [(38)]             zone 1
 8  COc1ccc2[nH]cc(C(CNC(=O)OC(C)(C)C)N(O)Cc3ccccc3)c2c1 (centres unmarked) [Compound (7)]             zone 1
 9  CC(C)(C)OC(=O)NCC(NO)c1c[nH]c2ccc(Br)cc12 (centres unmarked) [(21)]             zone 2
10  CC(C)(C)OC(=O)NCC(N)c1c[nH]c2ccccc12 (centres unmarked) [(23)]             zone 1

----------
Assay: In vitro cytotoxicity on Vero cells
Type: cell-based
Settings: monkey, Vero cells (monkey kidney); concentration of 10^−5 M; read-out: Average cytotoxicity (% inhibition), Vero cells
Collected cytotoxicity values appear next to each entry.
outcome-measure: cytotoxicity (%)

                                   molecule  outcome_measure  experimental_value
0  CC(C)(C)OC(=O)NCC(c1c[nH]c2ccccc12)N(O)C(=O)OC(C)(C)C (stereo not shown)     cytotoxicity                  15
1  COc1ccc2[nH]cc(C(C)N(O)Cc3ccccc3)c2c1 (stereo not shown)     cytotoxicity                   5
2  CC(C)(C)OC(=O)NCC(NO)c1c[nH]c2ccc(Br)cc12 (stereo not shown)     cytotoxicity                  11
3  CC(C)(C)OC(=O)NCC(c1c[nH]c2ccccc12)N(O)Cc1ccccc1 (stereo not shown)     cytotoxicity                  27
4  COc1ccc2[nH]cc(C(CNC(=O)OC(C)(C)C)N(O)Cc3ccccc3)c2c1 (stereo not shown)     cytotoxicity                   8
5  COc1ccc(CN(O)C(CC(C)C)c2c[nH]c3ccccc23)c(OC)c1 (stereo not shown)     cytotoxicity                  32
6  CC(C)(C)OC(=O)NCC(NO)c1c[nH]c2ccccc12 (stereo not shown)     cytotoxicity                   0

----------
Experiment: In vitro cytotoxicity on HCT116 cells
Type: cell-based
Conditions: human; concentration of 10^−5 M; read-out: Average cytotoxicity (% inhibition), HCT116 cells
Collected cytotoxicity values appear next to each entry.
outcome-measure: cytotoxicity (%)

>>> df
                                   molecule  experimental_value
0  Cl.Cl.NCC(N)c1c[nH]c2ccc(Br)cc12 (centres unmarked) [(27), dihydrochloride]                  26
1  Cl.Cl.NCC(NO)c1c[nH]c2cc(Br)ccc12 (centres unmarked)                  37

----------
Collected Average cytotoxicity (% inhibition), KB cells values appear next to each entry.
Test system: KB (human mouth carcinoma)
Test: In vitro cytotoxicity on KB cells
Format: cell-based
Conditions: concentration of 10^−5 M
outcome-measure: Average cytotoxicity (% inhibition), KB cells (%)

                                    compound  experimental_value
 0  CC(C)(C)OC(=O)NCC(NO)c1c[nH]c2ccccc12 (stereo not drawn)                  31
 1  Cl.Cl.NCC(NO)c1c[nH]c2cc(Br)ccc12 (stereo not drawn)                  14
 2  CC(C)(C)OC(=O)NCC(NO)c1c[nH]c2cc(Br)ccc12 (stereo not drawn)                   0
 3  CC(C)(C)OC(=O)NCC(c1c[nH]c2ccccc12)N(O)C(=O)OC(C)(C)C (stereo not drawn)                  14
 4  COc1ccc2[nH]cc(C(N)CNC(=O)OC(C)(C)C)c2c1 (stereo not drawn)                   2
 5  Cl.Cl.NCC(NO)c1c[nH]c2ccc(Br)cc12 (stereo not drawn)                  23
 6  CC(C)(C)OC(=O)NCC(N)c1c[nH]c2ccccc12 (stereo not drawn)                   2
 7  COc1ccc(CN(O)C(CC(C)C)c2c[nH]c3ccccc23)c(OC)c1 (stereo not drawn)                  13
 8  Cl.Cl.NCC(N)c1c[nH]c2ccc(Br)cc12 (stereo not drawn)                   0
 9  COc1ccc2[nH]cc(C(CNC(=O)OC(C)(C)C)N(O)Cc3ccccc3)c2c1 (stereo not drawn)                15.6
10  CC(C)(C)OC(=O)NCC(c1c[nH]c2ccccc12)N(O)Cc1ccccc1 (stereo not drawn)                33.7
11  CC(C)(C)OC(=O)NCC(NO)c1c[nH]c2ccc(Br)cc12 (stereo not drawn)                   0
12  CC(C)(C)OC(=O)NCC(c1c[nH]c2ccc(Br)cc12)/[N+]([O-])=C/c1ccccc1 (stereo not drawn)                38.3
13  COc1ccc2[nH]cc(C(C)N(O)Cc3ccccc3)c2c1 (stereo not drawn)                   0
14  CC(c1c[nH]c2ccc(Br)cc12)N(O)Cc1ccccc1 (stereo not drawn)                  50

----------
Assay: In vitro cytotoxicity on Vero cells
Format: cell-based
Settings: monkey; concentration of 10^−5 M; read-out: Average cytotoxicity (% inhibition), Vero cells
Description: The in vitro cytotoxicity results, measured at a concentration of 10^−5 M, are described below. The cytotoxicity was measured on 5 cell lines—KB (human mouth carcinoma), MCF7 (breast carcinoma) and MCF7R (resistant strain), Vero (monkey kidney) and HCT116 (human colon tumour).
outcome-measure: cytotoxicity (%)

                                   compound  outcome_measure  experimental_value
0  Cl.Cl.NCC(NO)c1c[nH]c2ccc(Br)cc12 (stereo not drawn) [(32), dihydrochloride]     cytotoxicity                  20
1  Cl.Cl.NCC(N)c1c[nH]c2ccc(Br)cc12 (stereo not drawn) [(27), dihydrochloride]     cytotoxicity                  14
2  Cl.Cl.NCC(NO)c1c[nH]c2cc(Br)ccc12 (stereo not drawn)     cytotoxicity                  31

----------
Assay: In vitro cytotoxicity on Vero cells
Type: cell-based
Conditions: monkey, Vero cells (monkey kidney); concentration of 10^−5 M; read-out: Average cytotoxicity (% inhibition), Vero cells
Collected cytotoxicity values appear next to each entry.
outcome-measure: cytotoxicity (%)

>>> df
                                   compound  experimental_value
0  COc1ccc2c(C(CNC(=O)OC(C)(C)C)N(O)Cc3ccccc3)c[nH]c2c1 (centres unmarked)                  42
1  CC(c1c[nH]c2ccc(Br)cc12)N(O)Cc1ccccc1 (centres unmarked)                  36
2  CC(C)(C)OC(=O)NCC(N)c1c[nH]c2ccccc12 (centres unmarked)                  11
3  CC(C)(C)OC(=O)NCC(NO)c1c[nH]c2cc(Br)ccc12 (centres unmarked)                  22
4  COc1ccc2[nH]cc(C(N)CNC(=O)OC(C)(C)C)c2c1 (centres unmarked)                  12
